All figures here come from paper PMC6694038.

# protocol.summary: Plasma concentrations of TAM, TOR and their metabolites by LC–MS/MS (screening study)
# measurement.parameters: patients on TAM 20 mg a day, N=182

{"compound": "CC/C(=C(\\c1ccccc1)c1ccc(OCCNC)cc1)c1ccccc1 [NDM-TAM]", "Plasma concentration, min": "0.0592 µg/mL"}
{"compound": "CC/C(=C(\\c1ccc(O)cc1)c1ccc(OCCN(C)C)cc1)c1ccccc1 [4OH-TAM]", "Plasma concentration, min": "0.0002 µg/mL"}
{"compound": "CC/C(=C(\\c1ccc(O)cc1)c1ccc(OCCNC)cc1)c1ccccc1 [Endoxifen, endoxifen]", "Plasma concentration, min": "0.0018 µg/mL"}
{"compound": "CC/C(=C(\\c1ccccc1)c1ccc(OCCN(C)C)cc1)c1ccccc1 [TAM, tamoxifen]", "Plasma concentration, min": "0.0385 µg/mL"}
